- target-system: SUV39H2 (Homo sapiens (Human))
- assay-explanation: biochemical
- Type: biochemical
- settings: 3H-SAM 100 nM, H3 Histone Peptide 350 nM, room temperature 3 hours
pIC50: −log10 of the molar value. Structures can show the parent of a compound that is named as a salt.
Rule: YES for pIC50 not less than 8, NO for anything less.

compound: COc1ccc(CN[C@H]2CC[C@@H](Nc3ccn4cc(-c5cc(Cl)c(OC)cc5OC)nc4c3)CC2)cc1 [Example 380, bis(2,2,2-trifluoroacetate)]
assigned-label: NO
--
compound: COc1cc(OC)c(-c2cn3cc(-c4ccc(C#N)cc4)c(N4CC[C@H](N)C4)cc3n2)cc1Cl [Example 445, dihydrochloride]
assigned-label: NO
--
compound: COc1cc(OC)c(-c2cn3ccc(N4CCN(C(C)=O)CC4)cc3n2)cc1Cl
assigned-label: YES
--
compound: COc1cc(OC)c(-c2cn3ccc(N4CCN(c5ccnc(N6CCCC(O)C6)n5)CC4)cc3n2)cc1Cl (stereo not drawn)
assigned-label: NO
--
compound: COc1cc(OC)c(-c2cn3ccc(N4CC[C@H](NC(=O)c5ccccn5)C4)cc3n2)cc1Cl
assigned-label: YES
--
compound: CNC1CCN(c2ccnc(N3CCN(c4ccn5cc(-c6cc(Cl)c(OC)cc6OC)nc5c4)CC3)n2)CC1
assigned-label: NO
--
compound: COc1cc(OC)c(-c2cn3ccc(N4CCN(c5nccc(N(C)C)n5)CC4)cc3n2)cc1Cl
assigned-label: NO
--
compound: COc1cc(OC)c(-c2cn3ccc(NC4CCC(NCc5ccc(F)cc5)CC4)cc3n2)cc1Cl (stereo not drawn)
assigned-label: NO
--
compound: COc1cc(OC)c(-c2cn3ccc(N[C@H]4C[C@H]5CC[C@@H](C4)N5CC4CCN(C(=O)OC(C)(C)C)CC4)cc3n2)cc1Cl
assigned-label: NO

----------
- target-system: SUV39H2 (Homo sapiens (Human), UniProt Q9H5I1)
- Sequence (Q9H5I1 whole entry): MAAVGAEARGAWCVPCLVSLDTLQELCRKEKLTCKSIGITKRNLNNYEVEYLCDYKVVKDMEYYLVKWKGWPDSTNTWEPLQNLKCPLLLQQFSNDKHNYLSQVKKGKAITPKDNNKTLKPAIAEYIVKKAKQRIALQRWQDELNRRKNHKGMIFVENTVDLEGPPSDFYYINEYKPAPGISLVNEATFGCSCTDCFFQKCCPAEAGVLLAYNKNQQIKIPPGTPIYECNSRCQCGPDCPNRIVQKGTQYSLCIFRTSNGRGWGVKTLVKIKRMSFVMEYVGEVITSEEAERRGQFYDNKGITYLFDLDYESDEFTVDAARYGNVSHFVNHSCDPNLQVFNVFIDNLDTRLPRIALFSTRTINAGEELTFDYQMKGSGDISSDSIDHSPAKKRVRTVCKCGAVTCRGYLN
- settings: read-out: IC50 (μM) Suv 39H2 assay; enzyme assay
Counter-ions that a name gives are not always drawn.
measured-metric: IC50 (µM)

compound: COc1cc(OCCCN(C)C)c(-c2cn3ccc(N4CCCN(S(=O)(=O)C5CC5)CC4)cc3n2)cc1Cl
units-text: µM
quantitative-result: 0.0161
//
compound: COc1cc(OC)c(-c2cn3ccc(N4CCOCC4)cc3n2)cc1Cl [Example 12, hydrobromide]
units-text: µM
quantitative-result: 0.012
//
compound: COc1cc(OC)c(-c2cn3ccc(N4CCN(Cc5ccncc5)CC4)cc3n2)cc1Cl
units-text: µM
quantitative-result: 0.00637
//
compound: COc1cc(OCCCN(C)C)c(-c2cn3ccc(N4CCC(NC(=O)OC(C)(C)C)CC4)cc3n2)cc1Cl
units-text: µM
quantitative-result: 0.0373

----------
- System: CCD-18Co
- assay-explanation: Cell-based assay, anti-proliferative activity (Cell Counting Kit-8, 72 hours)
- settings: Homo sapiens; CCD-18Co cells, 72 hours, Cell Counting Kit-8; read-out: IC50 (μM) CCD-18Co
Just a reminder that ties go to FALSE: only IC50 strictly below 2 µM counts as TRUE.

molecule: COc1cc(OC)c(-c2cn3ccc(N4CCN(C(=O)C5CC5)CC4)cc3n2)cc1Cl [Example 238]
assigned-label: FALSE
--
molecule: COc1cc(OC)c(-c2cn3ccc(-c4ccc(C(=O)NCC5CCNCC5)cc4)cc3n2)cc1Cl [Example 267]
assigned-label: FALSE
--
molecule: COc1cc(OC)c(-c2cn3ccc(N4CCN(C(=O)C5CCCC5)CC4)nc3n2)cc1Cl [Example 243]
assigned-label: FALSE
--
molecule: COc1cc(C)c(Cl)cc1-c1cn2ccc(N3CCN(S(=O)(=O)C4CC4)CC3)cc2n1 [Example 229]
assigned-label: FALSE
--
molecule: CCOP(=O)(CCN1CCCN(c2ccn3cc(-c4cc(Cl)c(OC)cc4OCCCN(C)C)nc3c2)CC1)OCC [Example 214]
assigned-label: FALSE
--
molecule: COc1cc(OC)c(-c2cn3ccc(N4CCN(C(=O)C5CCCC5)CC4)cc3n2)cc1Cl [Example 241]
assigned-label: FALSE
--
molecule: COc1cc(OC)c(-c2cn3ccc(N4CCN(c5ccccc5)CC4)cc3n2)cc1Cl [Example 282]
assigned-label: TRUE
--
molecule: COc1cc(OC)c(-c2cn3ccc(-c4ccc(C(=O)NCC5CCCNC5)cc4)cc3n2)cc1Cl (stereo not shown) [Example 251]
assigned-label: FALSE
--
molecule: COc1cc(OC)c(-c2cn3ccc(-c4ccc(C(=O)NCCNCCNC(=O)OC(C)(C)C)cc4)cc3n2)cc1Cl [Example 269]
assigned-label: TRUE
--
molecule: COc1cc(OCCCN(C)C)c(-c2cn3ccc(N4CCCN(S(=O)(=O)N(C)C)CC4)cc3n2)cc1Cl [Example 216]
assigned-label: FALSE
--
molecule: COc1cc(OC)c(-c2cn3ccc(-c4ccc(NCc5ncc[nH]5)cc4)cc3n2)cc1Cl [Example 270]
assigned-label: TRUE
--
molecule: COc1cc(OC)c(-c2cn3ccc(-c4ccc(C(=O)N5CCC(N)CC5)cc4)cc3n2)cc1Cl [Example 259]
assigned-label: FALSE
--
molecule: COc1cc(OC)c(-c2cn3ccc(N4CCN(CCCC(=O)O)CC4)cc3n2)cc1Cl [Example 240]
assigned-label: FALSE
--
molecule: COc1cc(OC)c(-c2cn3ccc(N4CCN(c5ccnc(N(C)C)n5)CC4)cc3n2)cc1Cl [Example 297]
assigned-label: TRUE
--
molecule: COc1cc(OC)c(-c2cn3ccc(N4CC[C@H](NCc5cccnc5)C4)cc3n2)cc1Cl [Example 300]
assigned-label: FALSE
--
molecule: COc1cc(OC)c(-c2cn3ccc(N4CCN(c5cccc(F)n5)CC4)cc3n2)cc1Cl [Example 281]
assigned-label: TRUE
--
molecule: COc1cc(OC)c(-c2cn3ccc(N[C@H]4CC[C@H](NCc5ccccc5)CC4)cc3n2)cc1Cl [Example 291]
assigned-label: TRUE
--
molecule: COc1cc(OC)c(-c2cn3ccc(N4CCN(C5CCCC5)CC4)cc3n2)cc1Cl [Example 239]
assigned-label: FALSE
--
molecule: COc1cc(OC)c(-c2cn3ccc(N4CCN(S(=O)(=O)C5CC5)C(CO)C4)cc3n2)cc1Cl (stereo not shown) [Example 236]
assigned-label: FALSE
--
molecule: COC(=O)N[C@H]1CC[C@H](Nc2ccn3cc(-c4cc(Cl)c(OC)cc4OC)nc3c2)CC1 [Example 277]
assigned-label: TRUE
--
molecule: COc1cc(OC)c(-c2nc3cc(N4CCN(C(=O)OC(C)(C)C)CC4)ccn3c2Br)cc1Cl [Example 271]
assigned-label: TRUE
--
molecule: COc1cc(OCSC)c(-c2cn3ccc(N4CCN(S(=O)(=O)C5CC5)CC4)cc3n2)cc1Cl [Example 255]
assigned-label: TRUE
--
molecule: COc1cc(OC)c(-c2cn3cc(NCCN)c(N4CCN(C(=O)OC(C)(C)C)CC4)nc3n2)cc1Cl [Example 221]
assigned-label: FALSE
--
molecule: COc1cc(OC)c(-c2cn3ccc(-c4ccc(C(=O)NC5CCNCC5)cc4)cc3n2)cc1Cl [Example 268]
assigned-label: FALSE
--
molecule: COc1cc(OC)c(-c2cn3ccc(N4CCN(c5ncccc5C#N)CC4)cc3n2)cc1Cl [Example 283]
assigned-label: TRUE
--
molecule: CCc1cc(OC)c(Cl)cc1-c1cn2ccc(N3CCN(S(=O)(=O)C4CC4)CC3)cc2n1 [Example 261]
assigned-label: TRUE
--
molecule: COc1cc(OC)c(-c2cn3ccc(N4CCN(Cc5ccncc5)CC4)cc3n2)cc1Cl [Example 292]
assigned-label: TRUE
--
molecule: COc1cc(OC)c(-c2cn3ccc(OC4CCN(c5ccnc(N)n5)CC4)cc3n2)cc1Cl [Example 284]
assigned-label: TRUE
--
molecule: CCS(=O)(=O)N1CCCN(c2ccn3cc(-c4cc(Cl)c(OC)cc4OCCCN(C)C)nc3c2)CC1 [Example 215]
assigned-label: FALSE
--
molecule: COc1cc(OC)c(-c2cn3cc(NCCN)c(N4CCN(S(=O)(=O)C5CC5)CC4)cc3n2)cc1Cl [Example 225]
assigned-label: FALSE
--
molecule: COc1cc(OC)c(-c2cn3ccc(N4CCC(O)CC4)cc3n2)cc1Cl [Example 231]
assigned-label: FALSE

----------
- Test system: CCD-18Co
- assay-explanation: Cell-based assay, anti-proliferative activity (Cell Counting Kit-8, 72 hours)
- settings: Homo sapiens; CCD-18Co cells, 72 hours, Cell Counting Kit-8; read-out: IC50 (μM) CCD-18Co
Just a reminder that ties go to Not fulfilled: only IC50 strictly below 6 µM counts as Fulfilled.

molecule: COc1cc(OCCCN(C)C)c(-c2cn3ccc(N4CCCN(S(C)(=O)=O)CC4)cc3n2)cc1Cl
assigned-label: Not fulfilled

molecule: COc1cc(C)c(Cl)cc1-c1cn2ccc(N3CCOCC3)cc2n1
assigned-label: Fulfilled

molecule: COc1cc(OC)c(-c2cn3ccc(N4CCN(C(=O)OC(C)(C)C)C(C)C4)cc3n2)cc1Cl (centres unmarked)
assigned-label: Fulfilled

molecule: COc1cc(OC)c(-c2cn3ccc(-c4ccc(C(=O)O)cc4)cc3n2)cc1Cl
assigned-label: Not fulfilled

molecule: COc1cc(C)c(-c2cn3ccc(N4CCN(S(=O)(=O)C5CC5)C(CO)C4)cc3n2)cc1Cl (centres unmarked)
assigned-label: Fulfilled

molecule: COc1cc(OC)c(-c2cn3ccc(-c4ccc(C(=O)NCC5CCCN5)cc4)cc3n2)cc1Cl (centres unmarked)
assigned-label: Fulfilled

molecule: COc1cc(OC)c(-c2cn3ccc(N4CC[C@H](NCc5ccccc5)C4)cc3n2)cc1Cl
assigned-label: Fulfilled

molecule: COc1cc(OC)c(-c2cn3ccc(N4CC[C@H](NCc5ccc(C)cc5)C4)cc3n2)cc1Cl
assigned-label: Fulfilled
